test_target: T1, human NK1 receptor (human, UniProt P25103)
T1 chain: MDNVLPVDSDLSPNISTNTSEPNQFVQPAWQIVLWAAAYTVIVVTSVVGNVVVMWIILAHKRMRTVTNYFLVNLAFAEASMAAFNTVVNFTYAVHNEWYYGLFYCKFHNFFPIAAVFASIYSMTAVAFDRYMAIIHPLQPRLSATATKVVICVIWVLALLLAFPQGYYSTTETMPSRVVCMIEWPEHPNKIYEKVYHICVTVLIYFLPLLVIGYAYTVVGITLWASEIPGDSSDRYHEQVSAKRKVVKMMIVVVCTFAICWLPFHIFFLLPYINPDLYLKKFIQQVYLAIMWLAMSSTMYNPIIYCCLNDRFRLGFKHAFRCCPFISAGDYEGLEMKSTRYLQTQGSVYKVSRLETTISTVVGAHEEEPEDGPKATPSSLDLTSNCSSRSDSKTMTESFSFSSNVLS
test_details: competition
Non-standard residues stand in square brackets, D forms with d. No end group written: not given here. *: point of attachment. NH(3,5-(CF3)2-benzyl) = FC(F)(F)c1cc(CN*)cc(C(F)(F)F)c1; Phe(4-F) = N[C@@H](Cc1ccc(F)cc1)C(=O)O
Ki by entry:

[
  {
    "binder": "Y[dA]G[Phe(4-F)]PLW-{NH(3,5-(CF3)2-benzyl)} [AKG190]",
    "Ki (nM)": 5.61
  },
  {
    "binder": "XAGFPLW (Dmt1, D-NMeAla2, NMePhe4; C-terminal NH-Bn(3',5'-(CF3)2)) [AKG184]",
    "Ki (nM)": 2.84
  },
  {
    "binder": "XAGFPLW (Dmt1, D-Ala2; C-terminal NH-Bn(3',5'-(CF3)2)) [AKG116]",
    "Ki (nM)": 1.4
  },
  {
    "binder": "Y[dA]GFPLW-{NH(3,5-(CF3)2-benzyl)} [TY012]",
    "Ki (nM)": 0.6
  },
  {
    "binder": "XAGFPLW (Dmt1, D-NMeAla2, NMeGly3, NMePhe4; C-terminal NH-Bn(3',5'-(CF3)2)) [AKG185]",
    "Ki (nM)": 3.47
  }
]
